Below: a set of entries, each annotated with reported pKd.
Target: T1, recombinant His-tagged full-length ERG (UniProt P11308 1-479, biotinylated with NHS-PEG4 biotin for the OctetRED assays)
T1 construct: mature; Baculovirus expression in SF9 cells, Ni-NTA purified; also called wild-type ERG; wtERG; not shown: His tag
T1 sequence (looked up): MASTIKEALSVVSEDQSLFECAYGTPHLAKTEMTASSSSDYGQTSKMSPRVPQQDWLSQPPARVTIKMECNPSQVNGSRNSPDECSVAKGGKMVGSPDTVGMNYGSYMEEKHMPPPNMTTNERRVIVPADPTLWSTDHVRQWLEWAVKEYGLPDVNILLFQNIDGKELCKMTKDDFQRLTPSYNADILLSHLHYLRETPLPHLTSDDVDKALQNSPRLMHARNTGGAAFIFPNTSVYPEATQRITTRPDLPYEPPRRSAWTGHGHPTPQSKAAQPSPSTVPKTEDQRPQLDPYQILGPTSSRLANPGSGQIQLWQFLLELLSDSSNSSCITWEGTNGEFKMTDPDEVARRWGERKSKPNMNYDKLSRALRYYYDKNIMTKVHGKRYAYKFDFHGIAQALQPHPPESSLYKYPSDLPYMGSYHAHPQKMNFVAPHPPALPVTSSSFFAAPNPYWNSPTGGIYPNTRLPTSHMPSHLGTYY
Experiment: OctetRED BLI
Where no end group is shown, it is not given here.
Scale for pKd: -log10 of concentration given in mol/L; no unit attached.

# binder, meas.value
data = [
    ("LPPYLFTGGRKKRRQRRRG (not fully specified, also called FITC-labeled TAT-EIP1) [TAT-EIP1 cell-permeable peptide]", 6.17),
]

Below: the item to evaluate.
binder LSFGSLPGGRKKRRQRRRG [TAT-EIP2 cell-permeable peptide] , pKd observed: 5.95
